Below, each entry is listed with its recorded pIC50.
Target: human recombinant D2 receptor (Homo sapiens)
Sequence (P14416 whole entry): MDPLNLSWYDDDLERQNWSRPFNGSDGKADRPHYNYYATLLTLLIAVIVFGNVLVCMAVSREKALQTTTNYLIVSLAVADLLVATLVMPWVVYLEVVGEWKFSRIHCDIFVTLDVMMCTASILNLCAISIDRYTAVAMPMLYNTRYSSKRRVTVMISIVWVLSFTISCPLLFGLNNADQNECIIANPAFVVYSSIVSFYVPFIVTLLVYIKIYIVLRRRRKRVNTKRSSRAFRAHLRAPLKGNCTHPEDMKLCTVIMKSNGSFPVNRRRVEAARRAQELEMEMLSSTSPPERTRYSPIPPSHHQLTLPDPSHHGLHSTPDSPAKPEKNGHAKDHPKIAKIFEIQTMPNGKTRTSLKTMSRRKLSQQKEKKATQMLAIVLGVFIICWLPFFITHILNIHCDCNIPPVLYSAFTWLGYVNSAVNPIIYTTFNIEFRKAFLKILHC
Test: D2 antagonistic activity test (LANCE cAMP, antagonism of dopamine inhibition of cAMP production in HEK293 cells)
Conditions: HEK293 cells expressing human recombinant D2 receptor; test concentration 0.1 nM to 10000 nM; read-out: D2 Antagonistic Activity (IC50, nmol/L)
pIC50: −log10 of the molar value.
Readout label: pIC50

[
  {
    "Smiles str": "COc1cc2c(cc1C(N)=O)[C@@H]1Cc3ccc(OC)c(OC)c3CN1CC2",
    "Reported value": 7.46
  },
  {
    "Smiles str": "COc1ccc2c(c1OC)CN1CCc3cc(OC)c4nc[nH]c4c3[C@@H]1C2",
    "Reported value": 6.54
  },
  {
    "Smiles str": "COc1cc2c(cc1CNC(C)=O)[C@@H]1Cc3ccc(OC)c(OC)c3CN1CC2",
    "Reported value": 6.12
  },
  {
    "Smiles str": "COc1cc2c(cc1OC)[C@@H]1Cc3ccc(CNC(C)=O)c(OC)c3CN1CC2",
    "Reported value": 6.18
  },
  {
    "Smiles str": "COc1cc2c(cc1CO)[C@@H]1Cc3ccc(OC)c(OC)c3CN1CC2",
    "Reported value": 6.11
  },
  {
    "Smiles str": "COc1cc2c(cc1OC)[C@@H]1Cc3ccc(OC)c(CO)c3CN1CC2",
    "Reported value": 5.64
  },
  {
    "Smiles str": "COc1cc2c(cc1C)[C@@H]1Cc3ccc(OC)c(OC)c3CN1CC2",
    "Reported value": 6.21
  },
  {
    "Smiles str": "COc1cc2c(cc1OC)[C@@H]1Cc3ccc(C)c(OC)c3CN1CC2",
    "Reported value": 6.03
  },
  {
    "Smiles str": "COc1cc2c(cc1C(C)=O)[C@@H]1Cc3ccc(OC)c(OC)c3CN1CC2",
    "Reported value": 6.30
  }
]

###

Target: human recombinant D1 receptor (Homo sapiens, UniProt P21728)
Sequence (P21728 whole entry): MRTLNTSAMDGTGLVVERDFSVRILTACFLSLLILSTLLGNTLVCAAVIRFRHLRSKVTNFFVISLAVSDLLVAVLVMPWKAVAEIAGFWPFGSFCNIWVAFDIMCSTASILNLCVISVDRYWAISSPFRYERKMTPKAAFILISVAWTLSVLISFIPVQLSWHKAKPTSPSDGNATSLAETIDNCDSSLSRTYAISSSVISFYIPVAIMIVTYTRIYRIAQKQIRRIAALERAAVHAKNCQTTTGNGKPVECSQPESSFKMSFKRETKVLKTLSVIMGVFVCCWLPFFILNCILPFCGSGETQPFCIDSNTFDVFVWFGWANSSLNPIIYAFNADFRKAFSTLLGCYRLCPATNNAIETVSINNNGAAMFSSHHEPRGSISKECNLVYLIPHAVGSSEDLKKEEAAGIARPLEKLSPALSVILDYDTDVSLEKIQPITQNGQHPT
Experiment: D1 antagonistic activity test (LANCE cAMP, antagonism of dopamine-induced cAMP production in HEK293 cells)
Conditions: HEK293 cells expressing human recombinant D1 receptor; test concentration 0.1 nM to 10000 nM; read-out: D1 Antagonistic Activity (IC50, nmol/L)
Counter-ions that a name gives are not always drawn.
Below, each entry is listed with its recorded IC50.
Readout label: IC50 (nmol/L)

[
  {
    "Compound": "COc1cc2c(cc1C(N)=O)[C@@H]1Cc3ccc(OC)c(OC)c3CN1CC2",
    "Readout label": "IC50",
    "Reported value": 170
  },
  {
    "Compound": "COc1cc2c(cc1OC1CC1)[C@@H]1Cc3ccc(OC)c(OC)c3CN1CC2 [Example 53, hydrochloride]",
    "Readout label": "IC50",
    "Reported value": 960
  },
  {
    "Compound": "COc1cc2c(cc1OCCO)[C@@H]1Cc3ccc(OCCO)c(OC)c3CN1CC2",
    "Readout label": "IC50",
    "Reported value": 443
  }
]
